Data origin: paper PMC10333884

target: SNX27 PDZ (human), Q96L92
protocol.text: FP
measurement.parameters: modification not given
Entries annotated with measured IC50
endpoint: IC50 (µM)

| binder | endpoint | val |
| --- | --- | --- |
| GMVSSTSFNGG [DAXX pS] | IC50 | 427 |
| GMVSETSFNGG [DAXX E] | IC50 | 117 |
